The measurements presented in this section are drawn from PubChem BioAssay AID431.

Experiment: viability loss of HPDE-C7K cells – cell-based, fluorescence, HTS, primary screen (AID 431);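 also: 0% = DMSO solvent wells and 100% = doxorubicin-treated wells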
Conditions: HPDE-C7K KRASV12 cells, Alamar Blue viability, 48 h; at 10 µM; stronger effect = higher value
The campaign covered roughly 63,000 compounds. About 1,100 (1.7%) were called active. For the sample, actives were picked, then their nearest neighbours and some compounds at random. Potency and affinity values are given separately.
quantity-kind: cytotoxicity

Please review the entries below; each comes with its answer.
| compound | recorded-value |
| --- | --- |
| CC(=O)Nc1cccc(OCC(O)Cn2cnc3ccccc32)c1 (stereo unspecified) | 3.6% (inactive) |
| Clc1ccccc1CNc1ncnc2nc[nH]c12 | -10.1% (inactive) |
| O=C(Nc1ccc2c(c1)OCCO2)C1CCN(C(=O)c2ccc(Br)cc2)CC1 | 4.7% (inactive) |
| C(=C\c1ccccc1)/CN1CCN(C(c2ccccc2)c2ccccc2)CC1 | 2.8% (inactive) |

Would you kindly look at the next entry?
Problem: State, in one line, measured cytotoxicity of `O=C(Nc1ccc(F)cc1)N1CCN(C/C=C/c2ccccc2)CC1`
Solution: 25.8% (inactive)

---

Assay: viability loss of HPDE-C7K cells – cell-based, fluorescence, HTS, primary screen (AID 431);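 also: 0% = DMSO solvent wells and 100% = doxorubicin-treated wells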
Conditions: HPDE-C7K KRASV12 cells, Alamar Blue viability, 48 h; at 10 µM
About 1,100 (1.7%) of roughly 63,000 compounds were called active.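 How the source made its calls: active means compounds whose percent cytotoxicity in the single-dose primary screen, scaled between solvent and toxic-drug controls, exceeds 50; inactive means the rest.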 The entries come from a sample that favours actives as a whole. Measured potencies and affinities stand elsewhere.
Allowed answers: True = active, False = inactive

| compound | qualitative-label |
| --- | --- |
| CC(/C=C/c1ccccc1)=N/O | False |

Problem: Any idea what this test logged for O=C1CC(C(=O)Nc2ccccc2C(=O)O)C(c2ccccc2)O1 (centres undefined) ?
Solution: False

Problem: Any idea what this test logged for `COc1ccc2[nH]c3c(N4CCN(Cc5ccc6c(c5)OCO6)CC4)ncnc3c2c1` ?
Solution: True

---

Experiment: viability loss of HPDE-C7K cells – cell-based, fluorescence, HTS, primary screen (AID 431);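 also: 0% = DMSO solvent wells and 100% = doxorubicin-treated wells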
Details: HPDE-C7K KRASV12 cells, Alamar Blue viability, 48 h; at 10 µM
The campaign covered roughly 63,000 compounds. About 1,100 (1.7%) were called active.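 How the source made its calls: active means compounds whose percent cytotoxicity in the single-dose primary screen, scaled between solvent and toxic-drug controls, exceeds 50; inactive means the rest.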 Only a selection was taken, and actives are over-represented in it overall. Results with a measured potency or affinity are listed apart.
Allowed answers: active, inactive

Problem: Any idea what this test logged for `COc1ccc(-c2cc(C(F)(F)F)nc(SCC(=O)Nc3cc(C)on3)n2)cc1` ?
Solution: inactive

Problem: Any idea what this test logged for COc1ccc(C2=CC(c3ccc(C)cc3)n3nnnc3N2)cc1 (stereo not given) ?
Solution: inactive

---

Assay: viability loss of HPDE-C7K cells – cell-based, fluorescence, HTS, primary screen (AID 431);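 also: 0% = DMSO solvent wells and 100% = doxorubicin-treated wells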
Settings: HPDE-C7K KRASV12 cells, Alamar Blue viability, 48 h; at 10 µM; stronger effect = higher value
The campaign covered roughly 63,000 compounds. About 1,100 (1.7%) were called active. The entries come from a sample that favours actives as a whole. Measured potencies and affinities stand elsewhere.
quantity-kind: cytotoxicity (%)
# output: bare number, implied unit %

| record-smiles | unit-of-measurement | recorded-value |
| --- | --- | --- |
| CCn1c(SCC(=O)c2cc(OC)ccc2OC)nnc1C1CC1 | % | 4.1 |
| Cc1cc(=O)[nH]c(SCC(=O)N2CCN(C(c3ccccc3)c3ccccc3)CC2)n1 | % | -3.1 |
| CN(C)CCCN1c2ccccc2CCc2ccccc21 | % | 20.3 |
| O=C(c1cc(-c2cccs2)on1)N1CCN(c2ccccc2)CC1 | % | 50.8 |
| COc1ccccc1N(CN1C(=O)c2ccccc2C1=O)C(=O)c1cccnc1 | % | -10 |

Would you kindly look at the next entry?
Problem: State, in one line, measured cytotoxicity of `COc1ccc2c(c1)Sc1ccccc1N2CCN(C)C`
Solution: 27.8
